- assay.name: Apparent oil/water partition coefficient (water-saturated n-octanol vs phosphate buffer)
- Format: physicochemical
- experimental.setup: water-saturated n-octanol/phosphate buffer, pH 7, n-octanol/phosphate buffer pH 7; read-out: LogP
readout: logP
Respond using a number only.

// lookup logP for C=C(C)[C@@H]1CC[C@]2(COC(=O)CCC(=O)O)CC[C@]3(C)C(CCC4[C@@]5(C)CC[C@H](O)C(C)(C)C5CC[C@]43C)C12 (stereo partly shown)
0.94
